B1: PSD2 (parent)
chain: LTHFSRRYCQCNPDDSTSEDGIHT

Variants of: B1
Assay: protein stability index of a GFP-peptide fusion (GPS, HEK-293T) (PSI 1-6); higher = more stable;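 also: lentivirally expressed fusions sorted by FACS into six bins by GFP to DsRed ratio, PSI derived from sequencing read proportions per bin multiplied by bin number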
Conditions: c terminus: a fixed tail appended
Each record gets a class by protein stability index: lower range (below 3), middle range (3 to below 4), upper range (4 or more)

[[record]]
variant_name = "S5A"
class_label = "middle range"

[[record]]
variant_name = "D15R"
class_label = "lower range"

[[record]]
variant_name = "C11I"
class_label = "upper range"

[[record]]
variant_name = "P13Y"
class_label = "lower range"

[[record]]
variant_name = "R7C"
class_label = "middle range"

[[record]]
variant_name = "R7Q"
class_label = "upper range"

[[record]]
variant_name = "H23Y"
class_label = "middle range"

[[record]]
variant_name = "S18F"
class_label = "lower range"

[[record]]
variant_name = "H3S"
class_label = "middle range"

[[record]]
variant_name = "S18R"
class_label = "lower range"

[[record]]
variant_name = "Q10H"
class_label = "lower range"

[[record]]
variant_name = "C9Q"
class_label = "upper range"

[[record]]
variant_name = "C11H"
class_label = "upper range"

[[record]]
variant_name = "E19A"
class_label = "lower range"

[[record]]
variant_name = "G21A"
class_label = "middle range"

[[record]]
variant_name = "R7S"
class_label = "middle range"

[[record]]
variant_name = "R6K"
class_label = "middle range"

[[record]]
variant_name = "T24D"
class_label = "middle range"

